assay: NCI Yeast Anticancer Drug Screen. Data for the sgs1 mgt1 strain (AID 161);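 note: 0% = growth of cultures given vehicle only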; conditions: S. cerevisiae sgs1 mgt1 strain, at 50.0 µM
The panel holds about 79,000 compounds, 15% with a hit somewhere; the sample as a whole holds those more often. Active and inactive are the calls of the source. Cut-off read from the data, not from the text of the source: active = growth inhibition above about 70%; inactive = the rest.
Pick one and only one: 1.0 for active, 0.0 for inactive

// outcome(item) with item = CCC(=O)C(CC)c1ccc(OC)cc1OC (centres undefined) 0.0

// outcome(item) with item = CCC(=O)[CH-]C(=O)CC.CCC(=O)[CH-]C(=O)CC.[Cu+2] 0.0

// outcome(item) with item = Cc1c(C(C)c2[nH]c3ccccc3c2C)[nH]c2ccccc12 0.0

// outcome(item) with item = CCCCCCCCCCCCCCCC[N+](C)(C)CCN 0.0

// outcome(item) with item = O=C1Cc2c(-c3cccs3)cc(-c3ccccc3)nc2-c2ccccc2N1 0.0

// outcome(item) with item = C=C(C(=C)P(=S)(c1ccccc1)c1ccccc1)P(=S)(c1ccccc1)c1ccccc1 0.0

// outcome(item) with item = COc1cccc2c1[C@@]1(C)C3C(=O)OC(C)(c4ccccc43)[C@@]1(C)C2=O (some centres undefined) 0.0

// outcome(item) with item = CC(=Nc1ccc(Cl)cc1)c1ccncc1 0.0

// outcome(item) with item = Cc1nn(C(=O)c2ccc(Cl)cc2)c2c1C(c1ccccc1)SC(N)=N2 (centres undefined) 0.0

// outcome(item) with item = O=C(Nc1ccc(Cl)cc1C(F)(F)F)C(=O)Nn1c(=S)[nH]c2ccccc2c1=O 0.0

// outcome(item) with item = CC(C)=Cc1cc(C(=O)Nc2ccc(Cl)c(Cl)c2)nc(N)n1 0.0

// outcome(item) with item = Fc1ccc(-c2ncc(-c3ccccc3)o2)cc1 0.0

// outcome(item) with item = Cc1cc(CC(O)(c2ccccc2)c2ccccc2)nc2[nH]c(=O)ccc12 0.0

// outcome(item) with item = COC(=O)/C=C\n1c(C)cc(=O)[nH]c1=O 0.0

// outcome(item) with item = O=C(Nc1nc2ncn(CCNCc3ccccc3)c2c(=O)[nH]1)c1ccccc1 0.0

// outcome(item) with item = COC(=O)/C(C#N)=C1\CCC(O)N1C (centres undefined) 0.0

// outcome(item) with item = CC(=O)C(CCC(=O)O)(CCC(=O)O)c1ccccc1 0.0

// outcome(item) with item = O=C(/C=C(\c1ccccc1)C1C2C=CC(C2)C1c1ccccc1)c1ccccc1 (centres undefined) 1.0

// outcome(item) with item = CCCCCCCCC(CO)CCCCCC (centres undefined) 0.0

// outcome(item) with item = CCOC(=O)CC(=O)c1cc(OC)c(OC)c(OC)c1 0.0

// outcome(item) with item = CC(=O)CCC(=O)C(=[N+]=[N-])S(=O)(=O)c1ccccc1 0.0

// outcome(item) with item = CN1CC[C@H]([C@@H](O)c2ccccc2)C1=O 0.0

// outcome(item) with item = Cn1c(=O)n2c(-c3ccccc3)c(-c3ccccc3)n2c1=O 0.0

// outcome(item) with item = O=C(Cc1cccc2c(=O)cc(-c3ccccc3)oc12)OCCN1CCOCC1 0.0

// outcome(item) with item = c1ccc(C(=C2C(=C(c3ccccc3)c3ccccc3)c3nc4ccccc4nc32)c2ccccc2)cc1 0.0

// outcome(item) with item = CCOC(=O)C(=CN1CCCCCC1)C(=O)OCC 0.0

// outcome(item) with item = Cc1ncc2c[n+]([O-])ccn12 0.0

// outcome(item) with item = Clc1ccc(CSCSCc2ccc(Cl)cc2)cc1 0.0

// outcome(item) with item = Cc1ccc(NC(=O)Oc2cccc(C(F)(F)F)c2)cc1 0.0

// outcome(item) with item = O=C1OC(c2ccc(Cl)cc2)=N/C1=C\c1ccc(Cl)c(Cl)c1 0.0

// outcome(item) with item = CC1CCCC(=O)CCC1 0.0

// outcome(item) with item = CCCC(=O)n1[nH]c(=O)n(C(C)(C)C)c1=O 0.0

// outcome(item) with item = OCc1ccc2ccccc2n1 0.0

// outcome(item) with item = c1ccc2c(c1)cc1ccc3cc4ccccc4c4nnc2c1c34 0.0

// outcome(item) with item = CCOC(=O)/C=C/SCCCN 0.0

// outcome(item) with item = COC(=O)C1=NC(=S)N=C(C(=O)OC)C1(C)C(=O)c1ccccc1 0.0

// outcome(item) with item = COc1ccc(CCNC(=S)NC(=O)c2ccc(Cl)c(Cl)c2)cc1OC 0.0

// outcome(item) with item = Nc1ccc(S(=O)(=O)O)cc1Cl 0.0

// outcome(item) with item = O=C1c2cn[nH]c2C(c2ccccc2)N1c1ccccc1 (centres undefined) 0.0

---

assay: NCI Yeast Anticancer Drug Screen. Data for the mlh1 rad18 strain (AID 175); conditions: S. cerevisiae mlh1 rad18 strain growth inhibition; at 50.0 µM; hits give high values
Compounds without any hit were thinned out: in the full panel of roughly 79,000, 15% have a hit.
Give growth inhibition for every item shown.
Just the number please, in %, no unit attached.

Which growth inhibition is reported for this compound? O=c1c2ccccc2nc(-c2ccccc2)n1NC(=S)Nc1ccccc1 -19

Which growth inhibition is reported for this compound? COc1ccc2c(c1OC)OC1CNc3cc(C)c(C)cc3N=C1C2 (stereo not drawn) 7.35

Which growth inhibition is reported for this compound? Cc1c2oc3c(C)ccc(C(=O)NCCN4CCN(c5ccccc5)CC4)c3nc-2c(C(=O)NCCN2CCN(c3ccccc3)CC2)c(N)c1=O -32.6

Which growth inhibition is reported for this compound? N#CCCC1(CCC#N)CCCCCCCCC(CCC#N)(CCC#N)C(=O)C1=O 14.7

Which growth inhibition is reported for this compound? O=C1CC2(C(=O)N1CN(Cc1ccccc1)Cc1ccccc1)c1ccccc1-c1ccccc12 22.4

Which growth inhibition is reported for this compound? CCCC(CCC)C(=O)[O-].CCCC(CCC)C(=O)[O-].CCCC(CCC)C(=O)[O-].CCCC(CCC)C(=O)[O-].[Cu+2].[Cu+2] 14.2

Which growth inhibition is reported for this compound? CCN(C/C=C/CN(CC)C(=S)Nc1ccccc1)C(=S)Nc1ccccc1 9.8

Which growth inhibition is reported for this compound? c1ccc(CSc2ncnc3oc(-c4ccccc4)nc23)cc1 16.4

Which growth inhibition is reported for this compound? CCCCCC(CCCC)OC(=O)Nc1ccccc1 (stereo not drawn) 4.6

Which growth inhibition is reported for this compound? NC(=S)N/N=C(\CCC(=O)Nc1ccccc1[N+](=O)[O-])CC(=O)c1ccco1 6.3

Which growth inhibition is reported for this compound? OB(O)c1cccc(B(O)O)c1 -10.1

Which growth inhibition is reported for this compound? O=C(OCc1ccccc1)c1ccccc1-c1c2ccc(=O)cc-2oc2cc(OCc3ccccc3)ccc12 26.1

Which growth inhibition is reported for this compound? Cn1cnc([N+](=O)[O-])c1Sc1ccccc1N -2.5

Which growth inhibition is reported for this compound? c1ccc(-c2cc3c(nn2)[nH]c2ccccc23)cc1 8.9

Which growth inhibition is reported for this compound? O=C1CC(C(=O)O)CC(=O)CC(C(=O)O)C1 (stereo not drawn) 18.9

Which growth inhibition is reported for this compound? CN1C(=O)c2ccccc2Cc2c(Cl)ncnc21 2.1

Which growth inhibition is reported for this compound? CCC(C)C(O)CC (stereo not drawn) -16.2

Which growth inhibition is reported for this compound? C=CCN1/C(=C(\C#N)c2nc3ccccc3[nH]2)Sc2c1nc[nH]c2=O -49.8

Which growth inhibition is reported for this compound? CNc1ccc(Oc2ccccc2)cc1[N+](=O)[O-] -11

Which growth inhibition is reported for this compound? Cc1ccccc1/C=C/C(=O)O -12.7

Which growth inhibition is reported for this compound? COc1cc(O)c2c(c1)Cc1cc(C)cc(O)c1C2=O 1.65

Which growth inhibition is reported for this compound? CCCCCCCCC(Nc1ccccc1)C(O)CCCCCCCC(=O)O (stereo not drawn) (tested in a mixture with another compound) 16.2

Which growth inhibition is reported for this compound? COc1cc([C@@H]2OC(=O)C3C2C(=O)O[C@H]3c2ccc(O)c(OC)c2)ccc1O (stereo partly drawn) 24.2

Which growth inhibition is reported for this compound? O=C(C(=Cc1ccc(F)cc1)C(=O)c1ccccc1)c1ccccc1 26.6

Which growth inhibition is reported for this compound? CC(=O)Oc1c(OC(C)C)c(C)c(O[Si](C(C)C)(C(C)C)C(C)C)c2[nH]c3ccccc3c12 -29.7

Which growth inhibition is reported for this compound? Cc1ccc(C(=O)O)c(O)c1 -2.5

Which growth inhibition is reported for this compound? CCc1ccccc1NC(=O)Sc1cccc(C)c1 -28.9

Which growth inhibition is reported for this compound? COc1ccc([N+](=O)[O-])c2ncncc12 20.6

---

test: NCI Yeast Anticancer Drug Screen. Data for the cln2 rad14 strain (AID 165);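 note: 0% = growth equal to vehicle treated cultures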; details: S. cerevisiae cln2 rad14 strain, at 50.0 µM, hits give high values
This is part of a sample that, as a whole, favours compounds with a hit. Of some 79,000 tested, about 15% had one in any assay.
quantity-measured: growth inhibition (%)
Just the number please, in %, no unit attached.

Which growth inhibition is reported for this compound? Cc1ncc([N+](=O)[O-])n1CCSC(N)=O 11.4

Which growth inhibition is reported for this compound? CCOC(=O)C1=C(Nc2ccc(F)cc2)C(=O)N(CC)C1 -6.45

Which growth inhibition is reported for this compound? Cc1cc(C(C)(C)CC(=O)O)cc(C)c1C 43.6

Which growth inhibition is reported for this compound? COc1cc(C=O)cc(NC(C)=O)c1OC(C)=O -4.85

Which growth inhibition is reported for this compound? COC(=O)n1c(CBr)c(Br)c2ccccc21 -3.8

Which growth inhibition is reported for this compound? O=S(=O)(O)c1ccccc1O -44.4

Which growth inhibition is reported for this compound? COC(=O)NC(Nc1ccc(C)cc1)(C(F)(F)F)C(F)(F)F 5.9

Which growth inhibition is reported for this compound? Nc1cc2c(cc1Cl)-c1cc(Cl)ccc1C2=O -24.4
